System tested: DUX4 HD1-HD2 (human, UniProt Q9UBX2 19-153)
Sequence (Q9UBX2 19-153): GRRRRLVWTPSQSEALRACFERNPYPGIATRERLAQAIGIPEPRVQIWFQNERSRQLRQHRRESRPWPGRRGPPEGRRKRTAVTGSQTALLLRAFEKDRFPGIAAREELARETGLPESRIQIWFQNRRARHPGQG
Procedure text: BLI; BLI on Octet Red 96, biotin-DNA-DRE on SA sensors, protein 0.5-32 uM (HD2) or 0.25-16 uM (HD1-HD2); buffer, salt, pH and temperature not given in the material
Run parameters: protein: recombinant; blunt
Readout type: pKd
Note: pKd values are expressed as the negative base-10 logarithm of concentration in M.

Task: pKd lookup needed for biotin-DNA-DRE (BLI) (dsDNA, biotin) DNA 1: TTCTAATCTAATCA DNA 2: TGATTAGATTAGAA , thanks.
Result: 5.85
